pIC50: −log10 of the molar value.
In what follows, each item is paired with its pIC50 for UniProt:P06239.
Sequence (P06239 whole entry): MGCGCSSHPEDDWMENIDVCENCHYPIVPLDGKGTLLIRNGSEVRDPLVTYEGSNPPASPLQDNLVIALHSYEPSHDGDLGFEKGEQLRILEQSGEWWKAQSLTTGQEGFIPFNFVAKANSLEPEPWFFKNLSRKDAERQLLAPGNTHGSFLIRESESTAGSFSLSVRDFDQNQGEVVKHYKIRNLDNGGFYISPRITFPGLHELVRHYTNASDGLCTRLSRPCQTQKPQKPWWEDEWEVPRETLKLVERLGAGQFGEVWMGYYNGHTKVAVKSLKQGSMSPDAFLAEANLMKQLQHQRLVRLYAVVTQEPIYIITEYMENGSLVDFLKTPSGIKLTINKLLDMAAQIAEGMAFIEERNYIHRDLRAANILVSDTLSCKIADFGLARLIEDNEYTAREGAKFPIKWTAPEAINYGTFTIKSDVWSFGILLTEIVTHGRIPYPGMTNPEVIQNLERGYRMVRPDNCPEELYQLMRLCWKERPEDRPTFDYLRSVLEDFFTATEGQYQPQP
EXPERIMENTAL_ENDPOINT: pIC50

>  <MOLECULE>
Oc1ccc(/C=C/c2ccccc2)cc1O [(E)-3,4-STILBENDIOL]

>  <EXPERIMENTAL_ENDPOINT>
pIC50

>  <VALUE>
3.69

$$$$
>  <MOLECULE>
Oc1cc(O)cc(/C=C/c2ccccc2)c1 [PINOSYLVIN]

>  <EXPERIMENTAL_ENDPOINT>
pIC50

>  <VALUE>
3.71

$$$$

(1) Oc1ccc(/C=C/c2cc(O)cc(O)c2)cc1 [RESVERATROL]
(2) Oc1cc(O)cc(/C=C/c2cc(O)cc(O)c2)c1
Data request: Of the two listed items, 1 and 2 , which carries the larger pIC50 figure? Give the label of your selection.
Data returned: 2

(A) Oc1cccc(/C=C/c2ccc(O)c(O)c2)c1
(B) Oc1cc(O)cc(CCc2cc(O)cc(O)c2)c1
Data request: Between A and B , which one shows the smaller pIC50 number? Give the label of your selection.
Data returned: B
